# maps each entry to its log10 of MIC
# Tested on: Escherichia coli P-140a
# test-details: In vitro antibacterial activity (MIC, agar dilution method)
# Assay type: cell-based
# condition: P140A; Escherichia coli P-140a; agar dilution; read-out: minimum inhibitory concentration (MIC)
quantity-name: log10 of MIC (log10 of the value in µg/mL)

1) CCn1cc(C(=O)O)c(=O)c2cc(F)c(N3CCCC3)nc21 [Compound C]: -0.11
2) CCn1cc(C(=O)O)c(=O)c2cc(Cl)c(N3CCCC3)nc21 [Compound B]: 1.70
3) CCn1cc(C(=O)O)c(=O)c2ccc(N3CCCC3)nc21 [Compound A]: 0.50
4) CCn1cc(C(=O)O)c(=O)c2ccc(C)nc21 [Compound D]: 0.19
5) CCn1cc(C(=O)O)c(=O)c2cc(F)c(N3CCC(NC)C3)nc21.Cl (stereo not drawn) [Compound 2]: -1.00

* * *

# Tested on: Salmonella typhimurium S-9
# test-details: In vitro antibacterial activity (MIC, agar dilution method)
# Type: cell-based
# condition: Salmonella enterica; Salmonella typhimurium S-9; agar dilution; read-out: minimum inhibitory concentration (MIC)
# Description: The minimum inhibitory concentrations (MIC, μg/ml) of the following compounds in vitro were measured by the agar dilution method of [Chemotherapy, Vol. 22, No. 16, page 1126 (1974)].
# maps each entry to its MIC
quantity-name: MIC (µg/mL)

1) CCn1cc(C(=O)O)c(=O)c2ccc(N3CCCC3)nc21 [Compound A]: 50
2) CCn1cc(C(=O)O)c(=O)c2cc(F)c(N3CCCC3)nc21 [Compound C]: 0.78
3) CCn1cc(C(=O)O)c(=O)c2cnc(N3CCCC3)nc21 [Compound E]: 25
4) CCn1cc(C(=O)O)c(=O)c2cc(Cl)c(N3CCCC3)nc21 [Compound B]: 50
5) CCn1cc(C(=O)O)c(=O)c2cc(F)c(N3CCC(NC)C3)nc21.Cl (stereo not drawn) [Compound 2]: 0.2
6) CCn1cc(C(=O)O)c(=O)c2cc(F)c(N3CCC(N)C3)nc21.Cl (stereo not drawn) [Compound 1]: 0.1
